system: MV4-11; test: Antiproliferative activity against human MV4-11 cells
# pIC50 per record follows
Units for pIC50: none; it is -log10 of a concentration expressed in mol/L.

NC(=O)c1c(NC(=O)c2ccc(Cl)cc2)sc2c1CCCC2 :: 5.85
NC(=O)c1c(NC(=O)C2CC2)sc2c1CCCC2 :: 5.92
COc1cccc(C(=O)Nc2sc3c(c2C(N)=O)CCCC3)c1 :: 5.82
Cc1ccc(C(=O)Nc2sc3c(c2C(N)=O)CCCC3)cc1C :: 6.15
NC(=O)c1c(NC(=O)c2ccc(Br)cc2)sc2c1CCCC2 :: 5.82
NC(=O)c1c(NC(=O)c2ccco2)sc2c1CCCC2 :: 5.82

Now consider the entry below.
Challenge: Looking for the measured pIC50 of `COc1ccc(C(=O)Nc2sc3c(c2C(N)=O)CCCC3)cc1` , can you help?
Response given: 5.89

// data source = ChEMBL document CHEMBL1147807
